Biological target: KAT-8 (Homo sapiens (Human))
Assay: KAT-8 biochemical inhibition assay (SAMDI mass spectrometry)
endpointLabel: IC50

CNC(=O)N[C@H]1C[C@@H](CS(=O)(=O)NNC(=O)c2cc(-c3cn(C)cn3)cc(Cl)c2F)C1 [Compound I-197]: 10 to 50 µM
CNC1CCCC(CS(=O)(=O)NNC(=O)c2cc(-c3cn(C)cn3)cc(Cl)c2F)C1 (stereo not drawn): 10 to 50 µM
Cn1cnc(-c2cc(Cl)c(F)c(C(=O)NNS(=O)(=O)CC3CCCc4ccccc43)c2)c1 (stereo not drawn): 10 to 50 µM

* * *

Measured pIC50, listed per entry for reference.
Biological target: KAT-8 (Homo sapiens (Human), UniProt Q9H7Z6)
Sequence (Q9H7Z6 other isoform, or with tags, fused parts or gaps): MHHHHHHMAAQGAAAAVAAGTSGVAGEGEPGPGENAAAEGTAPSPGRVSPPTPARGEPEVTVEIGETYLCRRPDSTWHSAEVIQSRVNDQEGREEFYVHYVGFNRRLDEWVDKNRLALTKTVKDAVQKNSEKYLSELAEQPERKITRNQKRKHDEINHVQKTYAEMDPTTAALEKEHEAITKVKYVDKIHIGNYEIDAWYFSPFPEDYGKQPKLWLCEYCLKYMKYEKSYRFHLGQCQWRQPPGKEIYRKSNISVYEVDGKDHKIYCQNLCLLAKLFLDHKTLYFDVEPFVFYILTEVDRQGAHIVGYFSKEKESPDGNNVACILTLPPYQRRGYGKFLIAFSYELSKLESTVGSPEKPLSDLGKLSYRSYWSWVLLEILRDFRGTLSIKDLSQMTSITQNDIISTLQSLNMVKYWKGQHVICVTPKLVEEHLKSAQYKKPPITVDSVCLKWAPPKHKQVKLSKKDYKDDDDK
Assay: KAT-8 biochemical inhibition assay (SAMDI mass spectrometry)
pIC50: −log10 of the molar value.
endpointLabel: pIC50

CN(C(=O)OC(C)(C)C)C1CC(CS(=O)(=O)NNC(=O)c2cc(-c3cn(C)cn3)cc(Cl)c2F)C1 (stereo not drawn): < 4.00
CCC(=O)N[C@H]1CC[C@@H](CS(=O)(=O)NNC(=O)c2cc(-c3cn(C)cn3)cc(Cl)c2F)CC1: 4.30 to 5.00
CO[C@H]1CC[C@H](CS(=O)(=O)NNC(=O)c2cc(-c3cn(C)cn3)cc(Cl)c2F)CC1: 4.30 to 5.00
CN1CCC(CS(=O)(=O)NNC(=O)c2cc(-c3cn(C)cn3)cc(Cl)c2F)C1 (stereo not drawn): 4.30 to 5.00
CCCn1cc(-c2cc(C)c(F)c(C(=O)NNS(=O)(=O)C3CCCCC3)c2)cn1: < 4.00
Cn1cnc(-c2cc(Cl)c(F)c(C(=O)NNS(=O)(=O)C[C@@H]3CCNC3)c2)c1: 4.30 to 5.00
